# study system: Cholinesterase (Homo sapiens, UniProt P06276)
# Sequence (P06276 whole entry): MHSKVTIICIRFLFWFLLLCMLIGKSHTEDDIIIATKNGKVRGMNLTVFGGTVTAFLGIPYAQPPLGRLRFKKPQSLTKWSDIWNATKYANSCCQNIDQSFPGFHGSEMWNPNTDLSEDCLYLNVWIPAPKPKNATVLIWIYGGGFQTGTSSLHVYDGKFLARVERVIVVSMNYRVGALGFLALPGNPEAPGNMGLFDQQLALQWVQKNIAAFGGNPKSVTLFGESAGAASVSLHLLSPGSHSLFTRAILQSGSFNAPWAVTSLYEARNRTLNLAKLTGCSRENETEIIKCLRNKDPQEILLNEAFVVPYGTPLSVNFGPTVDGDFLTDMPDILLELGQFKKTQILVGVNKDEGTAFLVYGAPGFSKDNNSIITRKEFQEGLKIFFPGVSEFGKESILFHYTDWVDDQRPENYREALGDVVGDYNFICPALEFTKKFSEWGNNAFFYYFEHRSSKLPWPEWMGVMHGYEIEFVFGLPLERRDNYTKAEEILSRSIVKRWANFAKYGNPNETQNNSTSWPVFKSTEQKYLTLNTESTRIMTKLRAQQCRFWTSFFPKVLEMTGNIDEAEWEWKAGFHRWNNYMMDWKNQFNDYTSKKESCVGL
A collection of compounds and their measured IC50
// return numeric value only (unit: µM, not printed)

1. C=C1C[C@]23C[C@H]1CC[C@H]2[C@]1(C)CCC[C@](C)(CO)[C@@H]1C[C@@H]3O :: 21.1
2. C=C1[C@@H]2CC[C@H]3[C@]4(C)CCC[C@](C)(CO)[C@@H]4C[C@H](O)[C@]3(C2)[C@@H]1O :: 98.1
3. CC(=O)OC[C@@]1(C)CCC[C@]2(C)[C@H]1C[C@H](OC(C)=O)[C@@]13C[C@@H](CC[C@@H]21)[C@](C)(O)C3 :: 176

// next item, IC50 requested
# input Look up and report IC50, with Cholinesterase (Homo sapiens, UniProt P06276) as system, for C[C@]1(CO)CCC[C@]2(C)[C@H]1C[C@H](O)[C@@]13C[C@@H](CC[C@@H]21)[C@]1(C)O[C@@H]13
# output 25

====

# study system: Acetylcholinesterase (Homo sapiens, UniProt P22303)
# Sequence (P22303 whole entry): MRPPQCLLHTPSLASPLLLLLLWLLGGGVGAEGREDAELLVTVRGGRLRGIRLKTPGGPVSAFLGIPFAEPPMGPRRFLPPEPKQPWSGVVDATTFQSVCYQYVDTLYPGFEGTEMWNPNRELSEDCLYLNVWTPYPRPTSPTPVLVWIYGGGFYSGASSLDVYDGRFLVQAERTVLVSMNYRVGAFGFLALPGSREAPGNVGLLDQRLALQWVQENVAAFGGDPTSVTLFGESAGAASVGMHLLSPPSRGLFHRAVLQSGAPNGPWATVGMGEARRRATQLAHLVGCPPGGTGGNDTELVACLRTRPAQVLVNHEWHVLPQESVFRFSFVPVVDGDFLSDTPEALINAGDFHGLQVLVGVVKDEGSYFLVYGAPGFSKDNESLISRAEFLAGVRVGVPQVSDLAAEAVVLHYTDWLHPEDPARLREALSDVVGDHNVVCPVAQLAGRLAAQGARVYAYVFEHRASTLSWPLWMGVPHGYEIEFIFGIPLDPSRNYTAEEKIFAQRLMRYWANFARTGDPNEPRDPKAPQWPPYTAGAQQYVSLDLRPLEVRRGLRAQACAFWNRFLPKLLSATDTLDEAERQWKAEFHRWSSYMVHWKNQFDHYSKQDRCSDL
# assay notes: Inhibition of AChE by spectrophotometry
# experimental setup: read-out: IC50
List of IC50 values.
State the answer as a number, implicitly in µM.

1) C[C@]1(CO)CCC[C@]2(C)[C@H]1C[C@H](O)[C@@]13C[C@@H](CC[C@@H]21)[C@]1(C)O[C@@H]13 :: 14.5

Consider the record given below.
# input Determine its reported IC50: C=C1C[C@]23C[C@H]1CC[C@H]2[C@]1(C)CCC[C@](C)(CO)[C@@H]1C[C@@H]3O
# output 22.8

====

# assay notes: Antioxidant activity against beta-carotene and linoleic acid assessed as inhibition of bleaching of beta-carotene
# Assay type: functional
# experimental setup: read-out: IC50
pIC50: −log10 of the molar value.
Listed next: entries and their corresponding pIC50.

Worked cases, answers included:
1. C[C@]1(CO)CCC[C@]2(C)[C@H]1C[C@H](O)[C@@]13C[C@@H](CC[C@@H]21)[C@]1(C)O[C@@H]13 :: < 3.70
2. CC(=O)OC[C@@]1(C)CCC[C@]2(C)[C@H]1C[C@H](OC(C)=O)[C@@]13C[C@@H](CC[C@@H]21)[C@](C)(O)C3 :: < 3.70

Then there is this compound:
# input Please supply the value of reported pIC50 for the item C=C1[C@@H]2CC[C@H]3[C@]4(C)CCC[C@](C)(CO)[C@@H]4C[C@H](O)[C@]3(C2)[C@@H]1O
# output < 3.70

====

# assay notes: Antioxidant activity assessed as superoxide radical scavenging activity by phenazin methosulphate-NADH-NBT assay
# Type: functional
# experimental setup: read-out: IC50
reported endpoint: IC50

1. COc1ccc(O)c(C(C)(C)C)c1.COc1ccc(O)cc1C(C)(C)C [BUTYLATED HYDROXYANISOLE] :: 27.1 µM

# input Supply measured IC50 of CC(=O)OC[C@@]1(C)CCC[C@]2(C)[C@H]1C[C@H](OC(C)=O)[C@@]13C[C@@H](CC[C@@H]21)[C@](C)(O)C3 in your reply.
# output > 200 µM

# input Look up and state reported IC50 for C=C1[C@@H]2CC[C@H]3[C@]4(C)CCC[C@](C)(CO)[C@@H]4C[C@H](O)[C@]3(C2)[C@@H]1O
# output > 200 µM

# input Annotate the compound C[C@]1(CO)CCC[C@]2(C)[C@H]1C[C@H](O)[C@@]13C[C@@H](CC[C@@H]21)[C@]1(C)O[C@@H]13 with its measured IC50.
# output > 200 µM

Hey, just so you know, these numbers are from ChEMBL document CHEMBL1152325.
